ASSAY: Storage stability of IPBC in Dowanol TPM solution with cobalt dryer and azole stabilizer (HPLC)
Assay type: physicochemical
CONDITION_INFO: 10% by weight IPBC, 5% Octasoligen-Cobalt 8, 5% stabilizer, HPLC at the beginning
I'd appreciate it if you could supply Amount of IPBC (start) values for the items below.
Give the value, in units of %, as a plain number.

The compound listed as Nc1nnc[nH]1 has a reported Amount of IPBC (start) of 9.7

The compound listed as Oc1nnc(S)[nH]1 has a reported Amount of IPBC (start) of 9.9

The compound listed as Nc1nnc(N)[nH]1 has a reported Amount of IPBC (start) of 9.7

The compound listed as Sc1nnc[nH]1 has a reported Amount of IPBC (start) of 10.2
